Reported %Inh values for a set of compounds
tested on: SBK1; conditions: concentration: 1 μM, replicates: in singlicate; n = 1;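 also: KINOMEscan kinase panel screen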
readout_name: %Inh (%)

- smiles: "Cl.O=C(Nc1cccc(-c2nn3ncccc3c2-c2ccnc(Nc3cccnc3)n2)c1)c1c(F)cccc1F"
  target_or_test_system: "SBK1"
  result_value: 41
- smiles: "Cc1ccc(NC(=O)Nc2cc(C(C)(C)C)nn2-c2ccccc2)cc1"
  target_or_test_system: "SBK1"
  result_value: 7
- smiles: "Cc1cc(NCC(c2ccccc2)c2ccccc2)nc(NCc2ccc(C(F)(F)F)cc2)n1"
  target_or_test_system: "SBK1"
  result_value: 0
- smiles: "Cc1c(Cn2ccn3c(=O)cc(N4CCOCC4)nc23)cccc1C(F)(F)F"
  target_or_test_system: "SBK1"
  result_value: 14
